biological target: IDH2 R140Q (Homo sapiens (Human), UniProt P48735, R140Q); assay: IDH2 R140Q enzymatic cofactor depletion assay (diaphorase/resazurin); conditions: IDH2 R140Q enzyme, one hour preincubation with compound, one hour reaction; read-out: Enz R140Q
Sequence (P48735 40-452 R140Q): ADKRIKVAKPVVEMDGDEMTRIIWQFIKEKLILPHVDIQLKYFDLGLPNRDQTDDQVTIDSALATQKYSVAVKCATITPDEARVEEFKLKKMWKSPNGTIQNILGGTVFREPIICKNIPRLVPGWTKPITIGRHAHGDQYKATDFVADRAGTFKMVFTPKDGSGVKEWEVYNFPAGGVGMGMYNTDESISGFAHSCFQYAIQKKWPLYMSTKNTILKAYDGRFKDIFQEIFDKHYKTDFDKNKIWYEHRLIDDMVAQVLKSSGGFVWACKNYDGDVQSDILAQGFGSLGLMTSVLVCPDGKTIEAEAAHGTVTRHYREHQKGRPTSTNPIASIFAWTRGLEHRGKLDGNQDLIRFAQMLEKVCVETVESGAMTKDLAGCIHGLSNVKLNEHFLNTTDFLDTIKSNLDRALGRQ
The reader will find reported IC50 values listed item by item below.

Here is how some compounds turned out for IC50.
CNS(=O)(=O)c1ccc(-c2ccsc2)c(NC(=O)Nc2cccc(C(F)(F)F)c2)c1 [Compound 111]	100 to 1000 nM
O=C(Nc1cccc(C(F)(F)F)c1)Nc1cc(S(=O)(=O)NCC(F)(F)F)ccc1OCC1CCOC1 (stereo not drawn) [Compound 184]	100 to 1000 nM

Proceed to the following item.
May I ask what IC50 has been recorded for O=C(Nc1cccc(O)c1)Nc1cc(S(=O)(=O)NCC(F)(F)F)ccc1-c1ccccc1 [Compound 81] ?
100 to 1000 nM

* * *

Overview of reported pIC50 across a group of compounds:
Biological target: IDH2 R140Q (Homo sapiens (Human), UniProt P48735, R140Q)
Assay: IDH2 R140Q enzymatic cofactor depletion assay (diaphorase/resazurin)
Details: IDH2 R140Q enzyme, one hour preincubation with compound, one hour reaction; read-out: Enz R140Q
Source text: The reaction was terminated by the addition of a second enzyme, diaphorase, and a corresponding substrate, resazurin. Diaphorase reduces resazurin to the highly fluorescent resorufin with the concomitant oxidation of NADPH to NADP, both halting the IDH2 reaction by depleting the available cofactor pool and facilitating quantitation of the amount of cofactor remaining after a specific time period through quantitative production of an easily detected fluorophore. […]
pIC50: −log10 of the molar value.

Before answering, review these 2 worked examples.
O=C(Nc1nccc(Cl)n1)Nc1cc(S(=O)(=O)NCC(F)(F)F)ccc1-c1ccccc1	6.00 to 7.00
O=C(Nc1ccc(F)cc1)Nc1cc(S(=O)(=O)NC2CC2)ccc1-c1ccccc1	5.00 to 6.00

Then this compound:
What measured pIC50 goes with C=CCNS(=O)(=O)c1ccc(-c2ccsc2)c(NC(=O)Nc2cccc(C(F)(F)F)c2)c1 ?
6.00 to 7.00
